Measured IC50, listed per entry for reference.
Target: Beta-secretase 1 (Homo sapiens)
Sequence (P56817 whole entry): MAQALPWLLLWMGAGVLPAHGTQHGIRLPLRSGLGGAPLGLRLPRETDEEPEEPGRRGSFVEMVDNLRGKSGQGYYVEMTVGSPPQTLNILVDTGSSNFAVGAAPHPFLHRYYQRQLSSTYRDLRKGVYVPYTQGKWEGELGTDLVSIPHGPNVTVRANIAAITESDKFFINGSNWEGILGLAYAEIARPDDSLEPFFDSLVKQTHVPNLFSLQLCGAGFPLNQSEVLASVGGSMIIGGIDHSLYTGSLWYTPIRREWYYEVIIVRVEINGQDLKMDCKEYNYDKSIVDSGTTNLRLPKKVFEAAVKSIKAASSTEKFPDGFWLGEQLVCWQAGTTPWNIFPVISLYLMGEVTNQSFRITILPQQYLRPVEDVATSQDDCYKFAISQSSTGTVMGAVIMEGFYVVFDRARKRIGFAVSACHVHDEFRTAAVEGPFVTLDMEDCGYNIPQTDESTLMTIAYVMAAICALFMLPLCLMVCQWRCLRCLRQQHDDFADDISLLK
Test: Inhibition of BACE by cells based assay

smilesString	IC50 / nM
COc1cc(C[C@H](NC(C)=O)[C@H](O)CN[C@H]2CC3(CCC3)Oc3ncc(CC(C)(C)C)cc32)ccc1F	7.6
CC(=O)N[C@@H](Cc1ccccc1F)[C@H](O)CN[C@H]1CC2(CCC2)Oc2ncc(CC(C)(C)C)cc21	5.1
CC(=O)N[C@@H](Cc1ccc(F)c(C)c1)[C@H](O)CN[C@H]1CC2(CCC2)Oc2ncc(CC(C)(C)C)cc21	4.6
CC(=O)N[C@@H](Cc1ccccc1)[C@H](O)CN[C@H]1CC2(CCC2)Oc2ncc(CC(C)(C)C)cc21	3.1
